Where do these numbers come from? They come from patent US8354403B2.

Catalogue of pEC50 readings, one per entry.
- Target entity: human β3 adrenergic receptor (Homo sapiens, UniProt P13945)
- Construct: expressed in transfected cells; host or cells: Chinese hamster ovary (CHO) cells, stably transfected
- Sequence (P13945 whole entry): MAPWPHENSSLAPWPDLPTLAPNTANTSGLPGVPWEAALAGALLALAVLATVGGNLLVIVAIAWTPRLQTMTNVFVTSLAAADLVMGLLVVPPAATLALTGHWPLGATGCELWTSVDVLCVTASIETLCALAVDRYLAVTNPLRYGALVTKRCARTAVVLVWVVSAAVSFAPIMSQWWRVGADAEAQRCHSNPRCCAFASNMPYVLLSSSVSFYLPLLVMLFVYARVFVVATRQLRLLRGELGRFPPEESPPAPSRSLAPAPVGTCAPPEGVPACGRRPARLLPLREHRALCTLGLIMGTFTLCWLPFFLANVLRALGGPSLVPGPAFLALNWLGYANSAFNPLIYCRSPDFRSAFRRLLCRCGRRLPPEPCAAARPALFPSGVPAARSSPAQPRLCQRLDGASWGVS
- Test description: Beta-3 agonist in vitro functional assay: cAMP production (LANCE TR-FRET) in CHO cells stably transfected with the cloned β3 receptor
- Assay type: cell-based
- Condition description: Table 5; cAMP, CHO cells; read-out: Human β3 agonist functional activity
pEC50: −log10 of the molar value.
Measurement kind: pEC50

Compound	Measurement kind	Observed value
Cc1cncn1C1CCN(C(=O)c2ccc(C[C@@H]3CC[C@H]([C@H](O)c4ccccc4)N3)cc2)CC1	pEC50	6.00 to 7.00
CC(c1ccccn1)C1CCN(C(=O)c2ccc(C[C@@H]3CC[C@H]([C@H](O)c4ccccc4)N3)cc2)CC1 (stereo partly shown)	pEC50	7.00 to 8.00
O=C(c1ccc(C[C@@H]2CC[C@H]([C@H](O)c3ccccc3)N2)cc1)N1CCC(n2cc(-c3ccccc3)nn2)CC1	pEC50	6.00 to 7.00
CC(C1CCN(C(=O)c2ccc(C[C@@H]3CC[C@H]([C@H](O)c4ccccc4)N3)cc2)CC1)n1cnccc1=O (stereo partly shown)	pEC50	7.00 to 8.00
O=C(c1ccc(C[C@@H]2CC[C@H]([C@H](O)c3ccccc3)N2)cc1)N1CCC(n2cc(-c3ccccc3)[nH]c2=O)CC1	pEC50	7.00 to 8.00
O=C(NC1CCN(C(=O)c2ccc(C[C@@H]3CC[C@H]([C@H](O)c4ccccc4)N3)cc2)CC1)OCc1ccccc1	pEC50	7.00 to 8.00
O=C(c1ccc(C[C@@H]2CC[C@H]([C@H](O)c3ccccc3)N2)cc1)N1CCC(N2C(=O)NC3CCCCC32)CC1 (stereo partly shown)	pEC50	7.00 to 8.00

----------
- Target entity: human β3 adrenergic receptor (Homo sapiens, UniProt P13945)
- Construct: expressed in transfected cells; host or cells: Chinese hamster ovary (CHO) cells, stably transfected
- Test description: Beta-3 agonist in vitro functional assay: cAMP production (LANCE TR-FRET) in CHO cells stably transfected with the cloned β3 receptor
- Format: cell-based
- Condition description: Table 10; Beta-3 agonist in vitro functional assay; read-out: Human β3 agonist functional activity
pEC50: −log10 of the molar value.
Measurement kind: pEC50

Compound	Observed value
CCc1noc(CNC(=O)C(C)N2CCN(C(=O)c3ccc(C[C@@H]4CC[C@H]([C@H](O)c5ccccc5)N4)cc3)CC2)n1 (stereo partly drawn)	7.00 to 8.00
CC(C(=O)N1CCC[C@@H]1C)N1CCN(C(=O)c2ccc(C[C@@H]3CC[C@H]([C@H](O)c4ccccc4)N3)cc2)CC1 (stereo partly drawn)	7.00 to 8.00
CC(C(=O)N(C)C(C1CC1)C1CC1)N1CCN(C(=O)c2ccc(C[C@@H]3CC[C@H]([C@H](O)c4ccccc4)N3)cc2)CC1 (stereo partly drawn)	7.00 to 8.00
CC(C(=O)NCc1cnoc1)N1CCN(C(=O)c2ccc(C[C@@H]3CC[C@H]([C@H](O)c4ccccc4)N3)cc2)CC1 (stereo partly drawn)	7.00 to 8.00
CC(C(=O)NCC(N)=O)N1CCN(C(=O)c2ccc(C[C@@H]3CC[C@H]([C@H](O)c4ccccc4)N3)cc2)CC1 (stereo partly drawn)	6.00 to 7.00
CC(C(=O)NC1(c2ccccn2)CC1)N1CCN(C(=O)c2ccc(C[C@@H]3CC[C@H]([C@H](O)c4ccccc4)N3)cc2)CC1 (stereo partly drawn)	7.00 to 8.00
